molecular target: DGKζ (Homo sapiens, UniProt Q13574); test: In vitro DGKζ inhibition assay (ADP-Glo); details: His-tagged human recombinant enzyme; 0.4 nM DGKζ, 30 μM ATP, 20 μM DLG; 90 minute incubation; ADP-Glo luminescence
Sequence (Q13574 whole entry): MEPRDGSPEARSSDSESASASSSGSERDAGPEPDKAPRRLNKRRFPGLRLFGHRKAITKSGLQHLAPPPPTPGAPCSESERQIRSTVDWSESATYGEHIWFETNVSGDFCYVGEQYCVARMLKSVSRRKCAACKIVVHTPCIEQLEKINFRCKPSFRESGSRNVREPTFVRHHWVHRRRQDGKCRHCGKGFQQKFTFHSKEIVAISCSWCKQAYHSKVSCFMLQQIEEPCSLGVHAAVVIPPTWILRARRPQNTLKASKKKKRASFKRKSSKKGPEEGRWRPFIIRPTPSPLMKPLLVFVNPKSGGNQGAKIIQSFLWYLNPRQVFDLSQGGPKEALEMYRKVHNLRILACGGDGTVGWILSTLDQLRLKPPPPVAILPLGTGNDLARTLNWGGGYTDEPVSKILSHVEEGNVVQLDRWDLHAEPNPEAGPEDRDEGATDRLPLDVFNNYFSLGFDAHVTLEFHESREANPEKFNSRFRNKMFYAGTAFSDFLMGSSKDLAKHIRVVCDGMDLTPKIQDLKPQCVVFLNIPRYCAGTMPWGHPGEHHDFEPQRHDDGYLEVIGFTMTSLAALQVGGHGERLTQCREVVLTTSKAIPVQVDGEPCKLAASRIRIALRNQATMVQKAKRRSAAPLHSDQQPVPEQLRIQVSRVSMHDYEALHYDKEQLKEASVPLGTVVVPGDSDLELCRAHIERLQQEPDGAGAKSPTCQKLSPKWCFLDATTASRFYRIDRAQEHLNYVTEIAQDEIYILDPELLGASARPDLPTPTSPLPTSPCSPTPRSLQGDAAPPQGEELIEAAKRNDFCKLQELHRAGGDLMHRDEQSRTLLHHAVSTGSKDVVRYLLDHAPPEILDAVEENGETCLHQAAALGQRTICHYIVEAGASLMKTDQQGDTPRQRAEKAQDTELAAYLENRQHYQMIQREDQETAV
pIC50: −log10 of the molar value.
This section presents compounds with their documented pIC50 values.

Look over these answered cases.
Entry `F/C(=C\c1ccc(Oc2ccccc2F)c(C(F)(F)F)c1N1CCOC2(CCN(CC3CC3)CC2)C1)c1nccc(-c2ccnnc2)n1` , DGKζ (Homo sapiens, UniProt Q13574) data, pIC50 value: ≥ 7.70

Entry `[2H]c1c([2H])c([2H])c(Oc2ccc(/C=C(\F)c3cncc(N4CCC(F)(F)C4)n3)c(N3CCCC4(CCN(CC5CC5)CC4)C3)c2C(F)(F)F)c([2H])c1[2H]` , DGKζ (Homo sapiens, UniProt Q13574) data, pIC50 value: ≥ 7.70

Entry `NC[C@@H]1CCCN(c2c(/C=C(\F)c3cc4nccnc4c(N4CC(F)(F)C4)n3)ccc(Oc3ccccc3F)c2C(F)(F)F)C1` , DGKζ (Homo sapiens, UniProt Q13574) data, pIC50 value: 6.70 to 7.70

More entries:
Entry `F/C(=C\c1ccc(Oc2ccccc2F)c(C(F)(F)F)c1N1CCOC2(CCN(CC3CC3)CC2)C1)c1cncc(-c2ccnnc2)n1` , DGKζ (Homo sapiens, UniProt Q13574) data, pIC50 value: ≥ 7.70

Entry `F/C(=C\c1ccc(Oc2cccc(F)c2F)c(C(F)(F)F)c1N1CCCC2(CCN(CC3CC3)CC2)C1)c1cncc(-c2cnsc2)n1` , DGKζ (Homo sapiens, UniProt Q13574) data, pIC50 value: ≥ 7.70

Entry `CCN1CCC2(CCCN(c3c(/C=C(\F)c4nccc(-c5ccnnc5)n4)ccc(Oc4ccccc4F)c3C(F)(F)F)C2)CC1` , DGKζ (Homo sapiens, UniProt Q13574) data, pIC50 value: ≥ 7.70
